- measurement-target: ~100 representative kinases (Homo sapiens, UniProt P12931)
- Construct: Recombinant protein kinase domains with a concentration of 2 μM
- Sequence (P12931 whole entry, the tested form may be a part): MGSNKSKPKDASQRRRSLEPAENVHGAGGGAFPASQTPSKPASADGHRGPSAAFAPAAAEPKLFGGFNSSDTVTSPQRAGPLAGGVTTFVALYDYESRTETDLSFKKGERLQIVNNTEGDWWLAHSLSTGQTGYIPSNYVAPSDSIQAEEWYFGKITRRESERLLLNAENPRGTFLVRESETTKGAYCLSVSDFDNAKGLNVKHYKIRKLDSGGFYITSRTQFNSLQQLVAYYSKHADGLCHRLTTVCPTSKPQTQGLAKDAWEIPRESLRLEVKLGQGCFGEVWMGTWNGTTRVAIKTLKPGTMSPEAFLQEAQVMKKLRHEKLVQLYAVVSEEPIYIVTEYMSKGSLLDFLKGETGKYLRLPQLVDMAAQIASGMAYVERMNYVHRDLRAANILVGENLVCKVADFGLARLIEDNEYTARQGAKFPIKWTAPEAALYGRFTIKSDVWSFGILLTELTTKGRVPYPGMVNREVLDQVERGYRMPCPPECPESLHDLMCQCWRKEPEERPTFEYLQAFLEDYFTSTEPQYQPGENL
- protocol-text: DSF 100 kinase selectivity screen;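 note: compound tested at 20 µM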
- Format: binding
- setup-conditions: Protein SRC; DSF; average of three replicates
If the reported dTm equals or exceeds 8 K, assign met. If not, assign not met.

molecule | label-class
Cc1ccc(-n2nc(C(C)(C)C)cc2NC(=O)Nc2cccc(-c3c[nH]c4ncnc(N5CCOCC5)c34)c2)cc1 | not met
CNC(=O)c1cc(Oc2ccc(NC(=O)Nc3cc(C(C)(C)C)nn3-c3ccc4ncccc4c3)c(F)c2)ccn1 [Rebastinib, reference compound] | met
O=C(Nc1cccc(-c2c[nH]c3ncnc(N4CCOCC4)c23)c1)C1(C(=O)Nc2ccc(F)c(Cl)c2)CC1 | not met
O=C(Nc1cccc(-c2c[nH]c3ncnc(N4CCOCC4)c23)c1)C1(C(=O)Nc2ccc(F)cc2F)CC1 | not met
O=C(Nc1cccc(-c2c[nH]c3ncnc(N4CCOCC4)c23)c1)C1(C(=O)Nc2ccc(F)c(F)c2)CC1 | not met
